Target: Tankyrase 1/2 (Homo sapiens, UniProt Q9H2K2+O95271)
Sequence (Q9H2K2 whole entry): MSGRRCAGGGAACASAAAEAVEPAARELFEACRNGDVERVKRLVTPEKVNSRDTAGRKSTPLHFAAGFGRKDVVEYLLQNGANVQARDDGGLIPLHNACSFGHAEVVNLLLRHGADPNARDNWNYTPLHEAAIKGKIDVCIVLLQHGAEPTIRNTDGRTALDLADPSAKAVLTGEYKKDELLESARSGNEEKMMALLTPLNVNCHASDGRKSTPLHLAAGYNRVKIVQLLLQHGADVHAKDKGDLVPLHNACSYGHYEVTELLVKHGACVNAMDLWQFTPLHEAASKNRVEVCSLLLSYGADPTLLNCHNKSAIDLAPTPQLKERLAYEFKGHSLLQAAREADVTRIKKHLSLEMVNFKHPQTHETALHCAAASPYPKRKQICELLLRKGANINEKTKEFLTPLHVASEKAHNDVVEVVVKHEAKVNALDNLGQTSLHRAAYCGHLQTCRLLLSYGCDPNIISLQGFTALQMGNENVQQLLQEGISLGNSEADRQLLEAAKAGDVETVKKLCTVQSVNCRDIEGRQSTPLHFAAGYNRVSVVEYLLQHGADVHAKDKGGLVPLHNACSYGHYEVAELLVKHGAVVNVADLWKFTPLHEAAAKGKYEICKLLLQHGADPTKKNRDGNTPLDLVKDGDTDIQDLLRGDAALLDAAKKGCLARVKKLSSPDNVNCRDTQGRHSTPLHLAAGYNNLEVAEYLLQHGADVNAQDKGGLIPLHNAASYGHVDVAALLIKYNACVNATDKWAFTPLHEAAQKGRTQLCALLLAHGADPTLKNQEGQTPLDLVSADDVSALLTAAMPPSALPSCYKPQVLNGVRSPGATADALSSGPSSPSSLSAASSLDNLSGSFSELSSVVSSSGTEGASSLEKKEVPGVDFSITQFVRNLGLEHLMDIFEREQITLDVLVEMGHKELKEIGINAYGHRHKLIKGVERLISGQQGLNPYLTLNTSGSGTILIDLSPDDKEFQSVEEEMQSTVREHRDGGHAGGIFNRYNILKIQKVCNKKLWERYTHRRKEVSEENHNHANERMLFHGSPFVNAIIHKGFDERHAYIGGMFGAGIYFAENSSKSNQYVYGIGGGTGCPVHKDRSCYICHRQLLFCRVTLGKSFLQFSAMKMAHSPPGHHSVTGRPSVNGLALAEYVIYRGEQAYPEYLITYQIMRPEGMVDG
Sequence (O95271 whole entry): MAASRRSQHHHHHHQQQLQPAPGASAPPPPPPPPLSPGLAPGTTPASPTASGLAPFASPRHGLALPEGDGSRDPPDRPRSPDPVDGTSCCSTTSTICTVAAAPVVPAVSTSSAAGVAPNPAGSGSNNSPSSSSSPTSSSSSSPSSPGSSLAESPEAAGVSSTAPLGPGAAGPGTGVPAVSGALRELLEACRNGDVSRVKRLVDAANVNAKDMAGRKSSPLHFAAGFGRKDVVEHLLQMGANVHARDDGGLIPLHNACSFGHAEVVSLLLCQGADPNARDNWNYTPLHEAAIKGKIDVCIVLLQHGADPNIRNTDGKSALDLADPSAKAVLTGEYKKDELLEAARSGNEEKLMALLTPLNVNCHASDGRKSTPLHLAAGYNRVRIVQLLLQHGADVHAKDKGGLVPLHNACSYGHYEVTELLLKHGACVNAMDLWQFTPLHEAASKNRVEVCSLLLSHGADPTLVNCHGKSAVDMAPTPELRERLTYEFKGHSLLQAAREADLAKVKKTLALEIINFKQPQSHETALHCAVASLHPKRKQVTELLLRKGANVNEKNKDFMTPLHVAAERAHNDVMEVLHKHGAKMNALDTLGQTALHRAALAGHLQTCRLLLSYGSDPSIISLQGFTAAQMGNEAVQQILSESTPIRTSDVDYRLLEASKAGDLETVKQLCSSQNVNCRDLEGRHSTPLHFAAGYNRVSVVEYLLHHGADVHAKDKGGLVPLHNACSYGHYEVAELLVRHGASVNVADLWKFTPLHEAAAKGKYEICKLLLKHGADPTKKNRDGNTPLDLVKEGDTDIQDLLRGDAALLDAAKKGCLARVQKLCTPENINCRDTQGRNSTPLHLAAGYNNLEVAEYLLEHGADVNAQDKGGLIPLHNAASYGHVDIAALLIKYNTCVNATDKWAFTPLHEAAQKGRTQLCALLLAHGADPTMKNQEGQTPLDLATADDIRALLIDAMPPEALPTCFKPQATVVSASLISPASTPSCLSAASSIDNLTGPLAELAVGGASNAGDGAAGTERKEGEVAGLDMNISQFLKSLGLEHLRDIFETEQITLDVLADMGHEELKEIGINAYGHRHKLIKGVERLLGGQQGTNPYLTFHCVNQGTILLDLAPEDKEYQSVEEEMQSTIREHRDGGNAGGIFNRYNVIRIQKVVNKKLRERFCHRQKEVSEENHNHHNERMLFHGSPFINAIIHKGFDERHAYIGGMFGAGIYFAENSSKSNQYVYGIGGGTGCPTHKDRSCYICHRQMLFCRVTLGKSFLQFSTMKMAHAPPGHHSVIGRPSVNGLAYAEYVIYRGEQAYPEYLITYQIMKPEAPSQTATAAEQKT
Assign IC50 to each entry below.
One number for each entry, in nM.

- CHEMICAL_STRING: "COc1ccccc1N1CCN(c2nc3c(c(=O)[nH]2)COCC3)CC1"
  UNIT_ABBREVIATION: "nM"
  IC50: 1009
- CHEMICAL_STRING: "COc1ccc(N2CCN(c3nc4c(c(=O)[nH]3)CCCC4)CC2)cc1"
  UNIT_ABBREVIATION: "nM"
  IC50: 1294
- CHEMICAL_STRING: "O=C1N(CCO)c2cccc(Cl)c2C12CCN(c1nc3c(c(=O)[nH]1)CCCC3)CC2"
  UNIT_ABBREVIATION: "nM"
  IC50: 13.9
- CHEMICAL_STRING: "O=C1N(CCO)c2cccc(F)c2C12CCN(c1nc3c(c(=O)[nH]1)CCCC3)CC2"
  UNIT_ABBREVIATION: "nM"
  IC50: 36.5
- CHEMICAL_STRING: "COc1ccccc1C1=CCN(c2nc3c(c(=O)[nH]2)CCCC3)CC1"
  UNIT_ABBREVIATION: "nM"
  IC50: 1161
- CHEMICAL_STRING: "O=c1[nH]c(N2CCC3(CC2)CN(CCO)c2cc(Cl)cc(Cl)c23)nc2c1CCCC2"
  UNIT_ABBREVIATION: "nM"
  IC50: 119
- CHEMICAL_STRING: "Oc1nc(N2CCN(c3ccccc3)CC2)nc2c1CCCC2"
  UNIT_ABBREVIATION: "nM"
  IC50: 1536
- CHEMICAL_STRING: "O=c1[nH]c(N2CCC3(CC2)CNc2ccccc23)nc2c1CCCC2"
  UNIT_ABBREVIATION: "nM"
  IC50: 352

Provide IC50 for all items below, preserving their order.
1. COc1ccccc1N1CCN(c2nc3c(c(=O)[nH]2)CC(F)(F)CC3)CC1
2. O=C1Nc2cc(F)ccc2C12CCN(c1nc3c(c(=O)[nH]1)CCCC3)CC2

[A]
1: 403; 2: 369

Hi, could you look up IC50 for each item in my list?
1. O=c1[nH]c(N2CCC3(CC2)NCc2ccccc23)nc2c1CCCC2
2. O=c1[nH]c(N2CCC3(CC2)CN(CCO)c2ccccc23)nc2c1CCCC2
3. N#Cc1cccc2c1C1(CCN(c3nc4c(c(=O)[nH]3)CCCC4)CC1)C(=O)N2
4. N#Cc1cccc2c1C1(CCN(c3nc4c(c(=O)[nH]3)CCCC4)CC1)CN2
5. COc1ccccc1N1CCCN(c2nc3c(c(=O)[nH]2)CCCC3)CC1
6. O=C1Nc2cc(F)cc(F)c2C12CCN(c1nc3c(c(=O)[nH]1)CCCC3)CC2
7. O=C1Nc2cccc(Cl)c2C12CCN(c1nc3c(c(=O)[nH]1)CCCC3)CC2
8. O=C1N(CCO)c2ccccc2C12CCN(c1nc3c(c(=O)[nH]1)CCCC3)CC2

[A]
1: 1605; 2: 362; 3: 496; 4: 799; 5: 9144; 6: 43.9; 7: 21.5; 8: 918

[Q] Using known records, supply IC50 for O=C1N(CCO)c2cc(F)cc(F)c2C12CCN(c1nc3c(c(=O)[nH]1)CCCC3)CC2
[A] 79.4
